Measured values drawn from BindingDB's records for doi:10.1016/j.chembiol.2010.07.014 for this set.

# target_of_assay: Inosine-5'-monophosphate dehydrogenase (Borreliella burgdorferi (strain ATCC 35210 / DSM 4680 / CIP 102532 / B31), UniProt P49058)
# Sequence (P49058 whole entry): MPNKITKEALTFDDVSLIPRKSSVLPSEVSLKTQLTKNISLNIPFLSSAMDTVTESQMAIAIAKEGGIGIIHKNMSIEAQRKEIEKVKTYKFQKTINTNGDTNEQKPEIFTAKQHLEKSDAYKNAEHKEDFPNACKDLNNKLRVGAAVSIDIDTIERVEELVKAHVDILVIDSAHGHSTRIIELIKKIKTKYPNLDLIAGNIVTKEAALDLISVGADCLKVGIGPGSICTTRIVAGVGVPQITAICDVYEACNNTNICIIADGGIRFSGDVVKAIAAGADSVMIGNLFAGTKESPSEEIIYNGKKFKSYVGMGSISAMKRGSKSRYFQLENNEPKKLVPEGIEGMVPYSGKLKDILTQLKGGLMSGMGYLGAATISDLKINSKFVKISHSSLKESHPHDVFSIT
# test_details: Inhibition Assay
# assay_conditions: pH 8; 25 °C
# Excerpt: Inhibition assay using inosine 5'-onophosphate dehydrogenase (IMPD).
quantity: IC50 (nM)

CC(Oc1ccccc1)C(=O)Nc1ccc(Cl)cc1 (stereo not drawn)    1400

P: COC(=O)c1c(C)c(=O)[nH]c2ccccc12
Q: COc1ccc(NC(=O)Cc2cccc3ccccc23)cc1
R: COc1ccc(NC(=O)Cn2c(-c3cscn3)nc3ccccc32)cc1
S: Nc1ccc(C(=O)OCc2nc3cc4ccccc4cc3[nH]2)cc1
# ascending order, key=IC50 List each label, following the requested order. S, R, P, Q

====

# target_of_assay: Inosine-5'-monophosphate dehydrogenase (Helicobacter pylori (strain G27), UniProt B5Z7J4)
# Sequence (B5Z7J4 whole entry): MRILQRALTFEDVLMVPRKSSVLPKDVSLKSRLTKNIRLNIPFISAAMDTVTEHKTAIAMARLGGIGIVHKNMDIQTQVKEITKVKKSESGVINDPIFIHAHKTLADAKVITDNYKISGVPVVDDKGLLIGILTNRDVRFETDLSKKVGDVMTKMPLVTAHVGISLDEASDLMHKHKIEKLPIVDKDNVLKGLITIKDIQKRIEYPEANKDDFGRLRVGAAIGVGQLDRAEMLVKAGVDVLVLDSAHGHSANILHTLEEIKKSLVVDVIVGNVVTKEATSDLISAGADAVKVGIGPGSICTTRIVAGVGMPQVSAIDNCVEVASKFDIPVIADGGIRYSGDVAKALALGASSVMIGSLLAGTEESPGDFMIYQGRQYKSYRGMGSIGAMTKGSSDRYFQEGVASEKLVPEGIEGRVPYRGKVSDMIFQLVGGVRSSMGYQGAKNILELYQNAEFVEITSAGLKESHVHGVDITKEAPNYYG
# test_details: Inhibition Assay
# assay_conditions: pH 8; 25 °C
# From the text: Inhibition assay using inosine 5'-onophosphate dehydrogenase (IMPD).
quantity: IC50 (nM)

Known IC50 results, listed for orientation:
O=C(Cn1c(-c2ccccn2)nc2ccccc21)Nc1ccc2ccccc2c1    1.1
COC(=O)c1c(C)c(=O)[nH]c2ccccc12    1500
COc1ccc(NC(=O)Cc2nn(C)c(=O)c3ccccc23)cc1    3000
Nc1ccc(C(=O)OCCCc2nc3cc4ccccc4cc3[nH]2)cc1    1200
COc1ccc(NC(=O)Cc2cccc3ccccc23)cc1    1300

P: CCn1c(SCC(=O)Nc2ccc(OC)cc2)nc2ccsc2c1=O
Q: COc1ccc(NC(=O)Cn2c(-c3cscn3)nc3ccccc32)cc1
R: Nc1ccc(C(=O)OCc2nc3cc4ccccc4cc3[nH]2)cc1
S: CC(Oc1ccccc1)C(=O)Nc1ccc(Cl)cc1 (centres undefined)
# ascending order, key=IC50 List each label, following the requested order. R, Q, P, S

====

# target_of_assay: Inosine-5'-monophosphate dehydrogenase (Cryptosporidium parvum, UniProt Q8T6T2)
# Sequence (Q8T6T2 whole entry): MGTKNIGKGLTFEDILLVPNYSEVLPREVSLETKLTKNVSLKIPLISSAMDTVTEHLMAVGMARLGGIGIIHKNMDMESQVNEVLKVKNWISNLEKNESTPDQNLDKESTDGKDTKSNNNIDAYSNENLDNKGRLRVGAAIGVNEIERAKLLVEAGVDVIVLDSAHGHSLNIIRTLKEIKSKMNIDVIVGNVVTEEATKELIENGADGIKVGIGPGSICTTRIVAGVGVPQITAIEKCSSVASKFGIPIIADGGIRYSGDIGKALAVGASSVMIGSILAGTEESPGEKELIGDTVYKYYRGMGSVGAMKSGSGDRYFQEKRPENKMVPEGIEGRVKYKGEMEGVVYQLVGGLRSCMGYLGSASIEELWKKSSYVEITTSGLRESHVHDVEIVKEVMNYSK
pIC50: −log10 of the molar value.
quantity: pIC50

Known pIC50 results, listed for orientation:
COc1ccc(NC(=O)Cc2nn(C)c(=O)c3ccccc23)cc1    5.27
O=C(Cn1c(-c2ccccn2)nc2ccccc21)Nc1ccc2ccccc2c1    8.10

P: Nc1ccc(C(=O)OCCCc2nc3cc4ccccc4cc3[nH]2)cc1
Q: CCn1c(SCC(=O)Nc2ccc(OC)cc2)nc2ccsc2c1=O
Please indicate which has the smaller reported pIC50: P , or Q . Output the label that corresponds to your choice. Q
